target.system: recombinant human MAO-B (monoamine oxidase-B) (Homo sapiens)
Construct: purchased Sigma-Aldrich
Sequence (P27338 whole entry): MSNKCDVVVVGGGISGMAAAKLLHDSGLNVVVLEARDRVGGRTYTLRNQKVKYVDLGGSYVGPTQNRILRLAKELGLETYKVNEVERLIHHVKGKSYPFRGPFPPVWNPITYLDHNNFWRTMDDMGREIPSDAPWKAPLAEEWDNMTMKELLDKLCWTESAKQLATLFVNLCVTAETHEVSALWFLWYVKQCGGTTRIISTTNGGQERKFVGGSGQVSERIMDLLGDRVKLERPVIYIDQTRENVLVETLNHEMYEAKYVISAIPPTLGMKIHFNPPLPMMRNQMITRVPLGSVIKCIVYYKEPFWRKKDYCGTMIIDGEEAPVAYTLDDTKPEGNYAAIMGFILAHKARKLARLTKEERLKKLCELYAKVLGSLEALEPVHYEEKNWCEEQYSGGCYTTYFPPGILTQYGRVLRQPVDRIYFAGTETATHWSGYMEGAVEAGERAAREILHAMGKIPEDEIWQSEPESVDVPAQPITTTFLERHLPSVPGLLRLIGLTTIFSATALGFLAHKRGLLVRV
assay.name: Activity evaluation on recombinant human MAO-B (Amplex Red/HRP-coupled assay, 1 mM benzylamine substrate)
Type: biochemical
condition.context: 1 mM benzylamine, read-out: Inhibitory Activity (IC50, nM) MAO-B
Structures can show the parent of a compound that is named as a salt.
measured.endpoint: IC50

Illustrative cases are given below, each with its answer.
compound: CCn1cc(-c2cc(C)c(Cn3cnn(CC(CN)=C(F)F)c3=O)s2)cn1 [Example 159, Trifluoroacetate]
IC50: > 100000 nM

compound: Cc1ccc(Br)nc1-n1cnn(CC(CN)=C(F)F)c1=O [Example 15, Trifluoroacetate]
IC50: > 100000 nM

From here, focus on the item given below.
Lab request: please report IC50 under test system recombinant human MAO-B (monoamine oxidase-B) (Homo sapiens) for NCC(Cn1ncn(CCc2ccc(-c3ccc(N4CCNCC4)cc3)s2)c1=O)=C(F)F [Example 174, Ditrifluoroacetate]
> 100000 nM

* * *

target.system: recombinant human VAP-1 (Homo sapiens, UniProt Q16853)
Construct: purchased R&D systems
Sequence (Q16853 whole entry): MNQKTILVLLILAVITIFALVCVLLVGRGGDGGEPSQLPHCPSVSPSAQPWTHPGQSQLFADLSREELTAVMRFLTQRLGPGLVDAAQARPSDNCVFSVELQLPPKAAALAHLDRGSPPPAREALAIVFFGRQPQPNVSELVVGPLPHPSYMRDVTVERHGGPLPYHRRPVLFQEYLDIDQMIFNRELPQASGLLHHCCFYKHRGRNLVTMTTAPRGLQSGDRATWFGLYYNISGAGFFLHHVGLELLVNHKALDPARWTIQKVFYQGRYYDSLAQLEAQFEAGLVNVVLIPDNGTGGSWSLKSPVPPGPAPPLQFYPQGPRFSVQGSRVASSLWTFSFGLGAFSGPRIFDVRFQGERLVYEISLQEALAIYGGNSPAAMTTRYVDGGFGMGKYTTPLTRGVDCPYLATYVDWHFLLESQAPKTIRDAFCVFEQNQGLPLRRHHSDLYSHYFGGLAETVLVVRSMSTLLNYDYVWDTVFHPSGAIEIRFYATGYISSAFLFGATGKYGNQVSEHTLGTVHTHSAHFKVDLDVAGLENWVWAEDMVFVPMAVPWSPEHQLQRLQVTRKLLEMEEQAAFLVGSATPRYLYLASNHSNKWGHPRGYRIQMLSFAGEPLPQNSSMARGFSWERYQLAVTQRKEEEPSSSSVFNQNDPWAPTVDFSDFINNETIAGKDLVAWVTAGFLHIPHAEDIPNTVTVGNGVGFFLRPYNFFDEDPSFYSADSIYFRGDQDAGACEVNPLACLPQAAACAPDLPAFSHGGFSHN
assay.name: Activity evaluation on recombinant human VAP-1 (Amplex Red/HRP-coupled hydrogen peroxide assay, benzylamine substrate)
Type: biochemical
condition.context: recombinant human VAP-1; 30 min preincubation at 37° C.; 1 mM benzylamine; read-out: Inhibitory Activity (IC50, nM) human VAP-1
Procedure: The compounds according to the present technology were evaluated in terms of activity on recombinant human VAP-1 (R&D systems) by measuring the level of hydrogen peroxide in horseradish peroxidase (HRP)-coupled reaction using Amplex Red Hydrogen Peroxide Assay Kit (Molecular Probes, Invitrogen, USA). […] The inhibitory effect of the compounds was measured as a decrease (%) in the signal rate as compared to the control group without any inhibitor (only diluted DMSO). […]
Counter-ions that a name gives are not always drawn.
measured.endpoint: IC50 (nM)

compound: NCC(Cn1ncn(CCc2ccc(-c3ccc4c(c3)OCO4)s2)c1=O)=C(F)F [Example 177, Trifluoroacetate]
target.system: recombinant human VAP-1 (Homo sapiens, UniProt Q16853)
IC50 [nM]: 1.2

A = NCC(Cn1ncn(-c2cnc(-c3ccc(N4CCNCC4)cc3)cn2)c1=O)=C(F)F [Example 90, Ditrifluoroacetate]
B = NCC(Cn1ncn(Cc2ccc(-c3ccc4c(c3)CCC(=O)N4)s2)c1=O)=C(F)F [Example 133, Trifluoroacetate]
C = CCn1cc(-c2cc(C)c(Cn3cnn(CC(CN)=C(F)F)c3=O)s2)cn1 [Example 159, Trifluoroacetate]
D = CS(=O)(=O)c1cccc(-c2ccc(Cn3cnn(CC(CN)=C(F)F)c3=O)s2)c1 [Example 102, Trifluoroacetate]
Ordering: ascending IC50. Submit the labels in the order that the ranking request calls for.
B, D, A, C

* * *

target.system: recombinant human DAO (diamine oxidase) (Homo sapiens)
Construct: purchased R&D systems
Sequence (P19801 20-751): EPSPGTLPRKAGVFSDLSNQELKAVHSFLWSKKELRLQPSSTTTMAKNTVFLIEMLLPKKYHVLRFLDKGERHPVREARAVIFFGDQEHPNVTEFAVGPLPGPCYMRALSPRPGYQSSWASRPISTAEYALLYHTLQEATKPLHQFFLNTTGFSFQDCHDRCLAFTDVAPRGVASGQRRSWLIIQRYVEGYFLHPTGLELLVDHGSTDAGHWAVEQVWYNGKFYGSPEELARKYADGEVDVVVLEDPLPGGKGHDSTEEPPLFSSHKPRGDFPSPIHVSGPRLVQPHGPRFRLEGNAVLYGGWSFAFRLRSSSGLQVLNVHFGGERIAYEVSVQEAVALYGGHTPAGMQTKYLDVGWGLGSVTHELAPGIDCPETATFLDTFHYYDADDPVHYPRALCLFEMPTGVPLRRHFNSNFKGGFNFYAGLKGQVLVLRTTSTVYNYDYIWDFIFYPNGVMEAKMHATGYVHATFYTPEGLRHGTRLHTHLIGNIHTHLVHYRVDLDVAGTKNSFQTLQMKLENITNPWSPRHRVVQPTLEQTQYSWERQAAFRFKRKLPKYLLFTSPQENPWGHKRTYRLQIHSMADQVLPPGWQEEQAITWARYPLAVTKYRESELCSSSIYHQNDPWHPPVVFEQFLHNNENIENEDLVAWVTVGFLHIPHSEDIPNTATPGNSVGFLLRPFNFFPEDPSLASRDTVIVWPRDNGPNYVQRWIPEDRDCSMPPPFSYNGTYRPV
assay.name: Activity evaluation on recombinant human DAO (Amplex Red/HRP-coupled assay, 1 mM putrescine substrate)
Assay type: biochemical
condition.context: 1 mM putrescine, read-out: Inhibitory Activity (IC50, nM) DAO
Counter-ions that a name gives are not always drawn.
measured.endpoint: IC50 (nM)

compound: CCn1cc(-c2ccnc(-n3cnn(CC(CN)=C(F)F)c3=O)c2)cn1 [Example 60, Trifluoroacetate]
unit.descriptor: nM
IC50: 810
//
compound: CN1C(=O)CCc2cc(-c3cc(-n4cnn(CC(CN)=C(F)F)c4=O)ccn3)ccc21 [Example 66, Trifluoroacetate]
unit.descriptor: nM
IC50: 250
//
compound: NCC(Cn1ncn(-c2cnc(-c3ccc4c(c3)OCO4)cn2)c1=O)=C(F)F [Example 93, Trifluoroacetate]
unit.descriptor: nM
IC50: 21

A = CCn1cc(-c2cnc(-n3cnn(CC(CN)=C(F)F)c3=O)c(F)c2)cn1 [Example 88, Trifluoroacetate]
B = NCC(Cn1ncn(Cc2cc(-c3ccc(N4CCNCC4)cc3)cs2)c1=O)=C(F)F [Example 147, Ditrifluoroacetate]
C = Cc1cc(-n2cnn(CC(CN)=C(F)F)c2=O)cnc1-c1cc(C)c2c(c1)CCC(=O)N2 [Example 80, Trifluoroacetate]
Rank entries according to their IC50, from the largest number down. Answer with the labels in sequence, matching the requested order.
B, A, C
(B: 2600 nM, A: 230 nM, C: 36 nM)

* * *

target.system: recombinant human VAP-1 (Homo sapiens)
Construct: purchased R&D systems
assay.name: Activity evaluation on recombinant human VAP-1 (Amplex Red/HRP-coupled hydrogen peroxide assay, benzylamine substrate)
Assay type: biochemical
condition.context: recombinant human VAP-1; 30 min preincubation at 37° C.; 1 mM benzylamine; read-out: Inhibitory Activity (IC50, nM) human VAP-1
Structures can show the parent of a compound that is named as a salt.
measured.endpoint: IC50 (nM)

compound: NCC(Cn1ncn(Cc2ccc(-c3cccc(-c4cc[nH]n4)c3)s2)c1=O)=C(F)F [Example 110, Trifluoroacetate]
target.system: recombinant human VAP-1 (Homo sapiens)
unit.descriptor: nM
measured: 1.3

A = Cc1cc(-n2cnn(CC(CN)=C(F)F)c2=O)cnc1-c1ccc(N(C)C)nc1 [Example 78, Trifluoroacetate]
B = Cc1cc(-n2cnn(CC(CN)=C(F)F)c2=O)cnc1-c1ccc2c(c1)OCO2 [Example 79, Trifluoroacetate]
C = CN1C(=O)CCc2cc(-c3ccc(CCn4cnn(CC(CN)=C(F)F)c4=O)s3)ccc21 [Example 179, Trifluoroacetate]
D = CS(=O)(=O)c1ccc(-c2ccc(-n3cnn(CC(CN)=C(F)F)c3=O)cc2F)cc1 [Example 24, Trifluoroacetate]
E = Cc1cc(-c2ccc(-n3cnn(CC(CN)=C(F)F)c3=O)cc2F)cc2c1NC(=O)CC2 [Example 29, Trifluoroacetate]
List items by IC50 in falling order. State the ranking by listing the labels in the requested order.
D, B, A, C, E
(D: 2.7 nM, B: 0.9 nM, A: 0.6 nM, C: 0.3 nM, E: 0.2 nM)

1 = Cc1c(-c2ccc(Cn3cnn(CC(CN)=C(F)F)c3=O)s2)ccc2c1NCCO2 [Example 139, Trifluoroacetate]
2 = NCC(Cn1ncn(-c2cccc(-c3ccc4c(c3)OCO4)c2)c1=O)=C(F)F [Example 21, Trifluoroacetate]
3 = NCC(Cn1ncn(-c2ccc(-c3ccc(C(F)(F)F)nc3)cc2F)c1=O)=C(F)F [Example 33, Trifluoroacetate]
4 = Cc1cc(-c2ccc(C(F)(F)F)nc2)cnc1-n1cnn(CC(CN)=C(F)F)c1=O [Example 70, Trifluoroacetate]
5 = NCC(Cn1ncn(Cc2cc(-c3ccc(N4CCNCC4)cc3)cs2)c1=O)=C(F)F [Example 147, Ditrifluoroacetate]
Could you please sort these 5 entries by IC50 from high to low? // list labels; follow requested order
5, 2, 1, 4, 3

1 = CS(=O)(=O)c1ccc(-c2ccc(-n3cnn(CC(CN)=C(F)F)c3=O)cn2)cc1 [Example 38, Trifluoroacetate]
2 = NCC(Cn1ncn(Cc2ccc(-c3ccc4c(c3)NC(=O)CO4)s2)c1=O)=C(F)F [Example 141, Trifluoroacetate]
// max by IC50 over [ 1 , 2 ] Returns: label corresponding to the selected item.
2
(2: 0.6 nM, 1: 0.4 nM)

a = CS(=O)(=O)c1ccc(-c2ccnc(-n3cnn(CC(CN)=C(F)F)c3=O)c2)cc1 [Example 54, Trifluoroacetate]
b = NCC(Cn1ncn(Cc2ccc(C#Cc3ccc4c(c3)CCC(=O)N4)s2)c1=O)=C(F)F [Example 165, Trifluoroacetate]
a or b : whose IC50 is greater? Could you answer with the label of the item you picked?
a

A = NCC(Cn1ncn(-c2ncc(Br)cc2F)c1=O)=C(F)F [Example 14, Trifluoroacetate]
B = Cc1cc(-c2ccc(-n3cnn(CC(CN)=C(F)F)c3=O)cn2)cc2c1NC(=O)CC2 [Example 43, Trifluoroacetate]
C = CN1C(=O)CCc2cc(-c3cnc(-n4cnn(CC(CN)=C(F)F)c4=O)c(F)c3)ccc21 [Example 87, Trifluoroacetate]
D = NCC(Cn1ncn(Cc2ccc(-c3ccc4c(c3)OCO4)s2)c1=O)=C(F)F [Example 126, Trifluoroacetate]
E = NCC(Cn1ncn(-c2cccc(Br)n2)c1=O)=C(F)F [Example 8, Trifluoroacetate]
Please list these compounds in decreasing order of IC50. Please list each label once, in the requested order.
E, A, D, B, C

1 = NCC(Cn1ncn(-c2cccc(Br)c2)c1=O)=C(F)F [Example 2, Trifluoroacetate]
2 = CS(=O)(=O)c1ccc(-c2ccc(CCn3cnn(CC(CN)=C(F)F)c3=O)s2)cc1 [Example 173, trifluoroacetate]
3 = Cc1cc(-c2ccc(CCn3cnn(CC(CN)=C(F)F)c3=O)s2)cc2c1NC(=O)CC2 [Example 178, Trifluoroacetate]
Order each entry by recorded IC50, climbing from the minimum. I would appreciate it if you listed the labels in the requested order.
2, 3, 1
